Assay remarks: inhibition of PAO1 biofilm formation – strain PAO1, LB-PBS medium, absorbance 600 nm, primary screen (AID 1176); also: test concentration not given here
Experimental context: P. aeruginosa PAO1 growth/biofilm, A600, 12 h; higher = more signal
Readout: z-score
// return a plain number; no unit text

For orientation, consider the following solved cases.
Query block: Consider the molecule shown here: Cc1ccccc1C(O)C1C=CC2C(=O)NC(=O)C2N1Nc1ccccn1 (stereo not drawn) What is its recorded z-score?
Result block: 0.543

Query block: Param item = C=C(COC)/C(=C/C[C@H](OC(=O)c1ccncc1)c1ccc(CO)o1)c1cnc2ccccc2c1 ; retrieve measured z-score.
Result block: 0.449

Query block: GET /values?readout=z-score&item= CC(C)[Si]1(C(C)C)OCc2cc(-c3ccc(-c4ccc(Cl)c(Cl)c4)o3)nc(-c3ccccc3)c21
Result block: 0.374

Query block: Request the reported z-score associated with C=CC[C@]1(C(=O)N2CCCCC2)N=C(c2ccc(OCCCO)cc2)O[C@H]1c1ccccc1CN=[N+]=[N-]
Result block: -0.124

Query block: State the recorded z-score for this entry: CCCCCCCCCC(O)C1C=CC2C(=O)N(c3ccccc3)C(=O)C2N1Nc1cc(OC)c(OC)c(OC)c1 (stereo not drawn)
Result block: 0.711

Continuing:
Query block: If you can, please state the reported z-score value of CCCC[C@@H]1C[C@H]1[C@@H](NC(=O)c1cccs1)c1ccccc1C(F)(F)F .
Result block: 0.591

Query block: # lookup: z-score of CCOC(=O)C[C@H]1[C@H](OC(=O)Cc2ccc3c(c2)OCO3)[C@@H](NC(=O)C2CCCCC2)c2cc(OCCCO)ccc2N1C(=O)c1ccccc1
Result block: 0.407

Query block: Item under review: O=C1O[C@H](c2ccccc2)[C@H](c2ccccc2)N2[C@H]1[C@@H](C(=O)O)[C@]1(C(=O)Nc3ccc(C#CCCO)cc31)[C@H]2c1ccccc1OCCO . Reported z-score?
Result block: 0.573

----------
Assay remarks: COS7 lysate on small-molecule microarray, probe aHis, 635 nm (AID 1123);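 also: z-score combines 667nm fluorescence intensity with signal-to-noise per printed compound spot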
Experimental context: COS7 cell lysate, fluorescence, higher = more signal
Measured composite z-score determines class: low-valued: < 0.7; mid-valued: ≥ 0.7 and < 2; high-valued: ≥ 2

Completed entries (count: 8):
Query block: Any idea which band O=C(c1ccccc1)N1C(=O)[C@]2(Cc3ccccc31)N=C(c1ccc(OCCCO)cc1)O[C@@H]2c1ccccc1 is in?
Result block: high-valued

Query block: Lab note: sort CC(C)NC(=O)[C@@]1(C)c2ccccc2C(=O)N(Cc2ccc(OC(F)(F)F)cc2)[C@H]1c1ccc(CO)cc1 into the matching composite z-score band.
Result block: mid-valued

Query block: Which category fits this record: C[N+](C)(C)CCCCCCNC(=O)[C@@H]1C[C@@H]2C(=O)N3CCC[C@H]3C(=O)N2[C@@H]1c1ccc(O)cc1
Result block: mid-valued

Query block: For this compound, which bin applies? COC(=O)[C@@]1(Cc2ccc(OC)cc2)[C@H]2c3cc(C(=O)N(C)C)n(Cc4ccc(C)o4)c3C[C@H]2CN1C(=O)c1ccccc1
Result block: high-valued

Query block: For this compound, which bin applies? [N-]=[N+]=Nc1ccccc1[C@@H]1OC(c2ccc(OCCCO)cc2)=N[C@]1(Cc1ccccc1)C(=O)O
Result block: mid-valued

Query block: Using the reported composite z-score, which band applies to CC(C)N1C(=O)c2ccccc2[C@@H](C(=O)NCCN2CCOCC2)[C@@H]1c1ccc(CO)cc1 ?
Result block: low-valued

Query block: Record COc1cc2c(cc1O)C(C1CC1)N(C)CC2 (stereo not given) — which class?
Result block: low-valued

Query block: Which class holds COCCOC(=O)N1C(=O)[C@@]2(c3cc(C#CC4=CCCCC4)ccc31)[C@H](C(=O)Nc1nc3ccccc3s1)[C@H]1C(=O)O[C@H](c3ccccc3)[C@H](c3ccccc3)N1[C@@H]2c1ccc(O)cc1 ?
Result block: mid-valued

New cases:
Query block: Assign a bin to CCOc1cc(C(O)C2C=CC3C(=O)NC(=O)C3N2Nc2ccc(Cl)cc2Cl)ccc1O (stereo not given)
Result block: mid-valued

Query block: Please report the category associated with CC(C)N1CC=CC23O[C@@H]4C=CCCOC(=O)C4[C@H]2C(=O)N(CCCO)[C@@H]3C1=O (stereo not given in full) , nothing else.
Result block: low-valued

Query block: Category of [N-]=[N+]=Nc1ccccc1[C@@H]1OC(c2ccc(OCCCO)cc2)=N[C@]1(Cc1ccccc1)C(=O)N1CCCCC1 :
Result block: mid-valued

Query block: Looking at NCCCCCNC(=O)[C@H]1C[C@H]2C(=O)N3CCC[C@H]3C(=O)N2[C@H]1c1cccc(OCCO)c1 , which class would you pick?
Result block: mid-valued

Query block: Kindly state the category for this compound: CC(C)(C)OC(=O)CC[C@@]1(C(=O)NCC(O)CO)N=C(c2ccc(OCCCO)cc2)O[C@@H]1c1ccccc1CN=[N+]=[N-] (stereo not given in full)
Result block: mid-valued

Query block: Hi there! Could you help me figure out the category for COc1ccc(CCNC(=O)[C@@]2(Sc3ccc(C)cc3)CC(=O)N(Cc3ccccc3C(F)(F)F)[C@@H]2c2ccc(CO)cc2I)cc1 please?
Result block: high-valued

Query block: Band for the recorded composite z-score of COC(=O)[C@@]1(Cc2ccc(F)cc2)[C@H]2c3cc(C(=O)N(C)C)n(Cc4ccc(OC(F)(F)F)cc4)c3C[C@H]2CN1C(=O)c1ccccc1 ?
Result block: low-valued

Query block: The entry to classify is NCCCCCNC(=O)[C@@H]1C[C@@H]2C(=O)N[C@@H](CCCCN)C(=O)N2[C@@H]1c1ccc(O)cc1 ; which class holds it?
Result block: high-valued

Query block: Just checking, what class would you give C=CC[C@@H](OC(=O)Nc1ccc(SC)cc1)c1ccc(O)c(F)c1 here?
Result block: low-valued

Query block: In plain terms, what class is C=CCNC(=O)[C@@H]1[C@H]2C(=O)O[C@H](c3ccccc3)[C@H](c3ccccc3)N2[C@H](c2ccccc2OCCO)[C@@]12C(=O)Nc1ccc(C#CCC(C(=O)OC)C(=O)OC)cc12 ?
Result block: mid-valued

Query block: Pick a category. Item: Cc1ccccc1C(O)C1C=CC2C(=O)NC(=O)C2N1Nc1ccccn1 (stereo not given)
Result block: mid-valued
